Hello, the source for this data is the nanobody polyreactivity screen of Harvey et al. (2022), in case you need it.

- method notes: yeast display, Sf9 membrane polyspecificity reagent, FACS + sequencing; frameworks hold sequencing errors

[
  {
    "sequence input": "QVQLVESRGGLVQAGGSLRLSCAASGRTFQYYAKGWYRQERGKVRELVAAISGSTSRTYYADSVKGRFTISRDNAKNTVYLQMNSLKPEDTAVSYCAAALYRLYITSYYYWGPGTQVTVSS",
    "polyreactivity (PSR sort gate)": "high polyreactivity"
  },
  {
    "sequence input": "QVQLVESGGGLVQAAGSLRISCAASGLIFGWNAMGWYRQAPGKERELVAAITSGGSTYYADSVKGRFTISRDNAKNTVYLQMNSLKPEDTAVYYCAAVYVLGKTGRVYGKYGYWGQGTQVTVSS",
    "polyreactivity (PSR sort gate)": "high polyreactivity"
  }
]

###

- method notes: yeast display, Sf9 membrane polyspecificity reagent, FACS + sequencing; frameworks hold sequencing errors
assay readout: polyreactivity (PSR sort gate)

[
  {
    "sequence input": "QVQLVESGGGLDQAGGRLRLSCAASGFTFNYNAMGWYRQATGKERELVAAISRSGGRTYYADSVKGRFTISRDNAKNTVYLQMNSLKPEDTAVYYCAADSGTNGYDYWGQGTQVTVSS",
    "assay readout": "polyreactivity (PSR sort gate)",
    "observed measurement": "high polyreactivity"
  },
  {
    "sequence input": "QGQLVESGGGLVQAGGSLRLSCAASGRTLVIKVMGWYRKAPGKERELVAAISFRSGNTYYADSVKGRFTISRDNAKITVYLQMNSLKPEDTAVYDCAAYTYRTSTTSSYYNWGQGTQVTVSS",
    "assay readout": "polyreactivity (PSR sort gate)",
    "observed measurement": "high polyreactivity"
  },
  {
    "sequence input": "QVQLVESGGGLVQAGGSLRLSCAASGFIFYSNAMGWYRQAPGKERELVAAISRGGGSTYYADSVKGRITISRDNAKNTVYLQMNSLIPVDTAVYYCAKRRLSPQDDYWGQGTQVTVSS",
    "assay readout": "polyreactivity (PSR sort gate)",
    "observed measurement": "high polyreactivity"
  }
]

###

- method notes: yeast display, Sf9 membrane polyspecificity reagent, FACS + sequencing; frameworks hold sequencing errors
assay readout: polyreactivity (PSR sort gate)

[
  {
    "sequence input": "QVNLVESGGGLVQAGGSLRLSCAASGRTFRFYVMGWYRQAPGKERELVAVIRYRGGSTYYADSVKGRFTISRDNAKNTVYLHMNSLKPEDTAVYYCNADFLLAGNEYDFWGQGTQVTVSS",
    "polyreactivity (PSR sort gate)": "high polyreactivity"
  },
  {
    "sequence input": "QVQLVESGGGLVQAGGSLRLSCAASGRIFYNYVMGWYRQAPGKERELVAAISSSGGSTYYADSVKGRFTISRDNAKNSVYLQMNSLKPEDTAVYYCSAETYQLTWVLYYYWGQGTQVTVSS",
    "polyreactivity (PSR sort gate)": "high polyreactivity"
  },
  {
    "sequence input": "QVQLVESGGGLVQAGGSLRLSCAASGFIFGWSGMGWYRLAPGKERELVAAITGSGVRTYYAASVKGRFTISRDNAENTVYLQMNRLKPEDTAVYYCARAGGYVGRGYKDQDGRGDYGGQGTQVTVSS",
    "polyreactivity (PSR sort gate)": "high polyreactivity"
  },
  {
    "sequence input": "QVQLVESGGGLVQAGGSLRLICAASGFTFDANAMGWYRQAPGKERELVAAITRVGSTFYADSVKGRFTISRDNAKNTVYLQMNSLKPEDTAVYYCNAARDHVSGYVYWGQGTQVTVSS",
    "polyreactivity (PSR sort gate)": "low polyreactivity"
  }
]

Attention now turns to another entry.
Ask: Requested field: polyreactivity (PSR sort gate). Item: "QVQLVESGGGLVQAGGSLRLSCAASGFIFTPYAMGWYRQAPGKEREFVATITWSGGSTNYADSVKGRFTISRDNAKNTVYLQMNSLKPEDTAVYYCNADTWSPNDYWGQGTQVTVSS"
Reply: low polyreactivity

###

- method notes: yeast display, Sf9 membrane polyspecificity reagent, FACS + sequencing; frameworks hold sequencing errors

[
  {
    "sequence input": "QVQLVESGGGLVQAGGSLRLSCAASGSTFHSNAMGWYRQAPGKERELVAAISQGGGRTYYADSVKGRFTISRDNAKNTVYLQMNSLKPEDTAVYYCNRRTRGLIDGGMDYWGQGTQVTVSS",
    "polyreactivity (PSR sort gate)": "low polyreactivity"
  },
  {
    "sequence input": "QVQLVESGGGLVQAGGSLRLSCAASGRTFSDYAMGWYRQAPGKERELVAAISNGGNTYADSVKGRFTISRDNAKNTVYLQMNSLKPEDTAVYYCNKESGDTARQSIMPSGRGDYWGQGTQVTVSS",
    "polyreactivity (PSR sort gate)": "low polyreactivity"
  }
]

###

- method notes: yeast display, Sf9 membrane polyspecificity reagent, FACS + sequencing; frameworks hold sequencing errors
assay readout: polyreactivity (PSR sort gate)

Sample records with polyreactivity (PSR sort gate):
[
  {
    "sequence input": "QVQLVESVGGLVQAGGSLRLSCDASGRIFVKYAMGGSRQAPGKERELVASITSGGRTNYADSVKGRFTISRDNAKNTVYLQMNSLKPEDTAVYYCAADARQSRYNYWGQGTQVTVSS",
    "observed measurement": "high polyreactivity"
  },
  {
    "sequence input": "QVQLVESGGGLVQAGGSLRLSCAASVTIFGDYTMGWYRQAPGKERELVAAITWSAGRTYYADSVKGRFTISRDNAKNTVYLQMNSLKPEDTAVYYCAAQVPEDTETVDYWGQGTQVTVSS",
    "observed measurement": "low polyreactivity"
  },
  {
    "sequence input": "QVQLVESGGGLVQAGASLRLSCAASGRIFPTYAMGWYRQAPGKEMEFVAAISRSGGRTYYADSVKGRFTISRDHAKNTVYLQMNSLKPEDTAVYYCNAEGDPYVDFPSRSTGYDYWGQGTQVTVSS",
    "observed measurement": "high polyreactivity"
  },
  {
    "sequence input": "QVQLVESGGGLVQAGGSLRLSCAASGTIYVTNGMGWYRQAPGKERELVAVISWGGGNTYYADSVKRRFTISRDNAKNTVYLQMNILKPEDTAVYYCAADPISEFYWGVKDRYDYWGQGTQVTVSS",
    "observed measurement": "low polyreactivity"
  }
]

Ask: Requested field: polyreactivity (PSR sort gate). Item: "QVQLVESGGGLVQAGGSLRLSCPASGRILWFYAMGWYRQAPGKERELVAAISWNGGSTYYADSVKGRFTISRDNAKNTVYLQMNSLKPEDTAVYYCNKDPSVEWWFDYWGQGTQVTVSS"
Reply: low polyreactivity

###

- method notes: yeast display, Sf9 membrane polyspecificity reagent, FACS + sequencing; frameworks hold sequencing errors
assay readout: polyreactivity (PSR sort gate)

[
  {
    "sequence input": "QVQLVESGGGLVQAGGSLRLSCAASGRIFQYNTMGWYRQAPGKERELVAGISSGGSTNYADSVKGRFTISRDNAKNTVYLQMNSLKPEDTAVYYCAARAKRYNVRFDYWGQGTQVTVSS",
    "polyreactivity (PSR sort gate)": "high polyreactivity"
  },
  {
    "sequence input": "QVQLVESGGGLVQAGGSLRLSCAASGRTFPLYAMGWYRQAPGKERELVASITSDSSTYYADSVKGRFTISRDNAKNTVYLQMNSLKPEDTAVYYCAATTIPYPYTEFDYWGQGTQVTVSS",
    "polyreactivity (PSR sort gate)": "low polyreactivity"
  },
  {
    "sequence input": "QVQLVESGGGLVQAGGSLRLSCAASGFTYYYYAMGWYRQAHGKERELVAAISTRDGNTYYADSVKGRFTISRDNAKNTVYLQMNSLKPEDTAVYYCAADYFRYYPYDYWGQGTLVTVSS",
    "polyreactivity (PSR sort gate)": "low polyreactivity"
  },
  {
    "sequence input": "QVQLVESGGGLVQAGGSLRLSCAASGFTLFGYAMGWYRQAPGKERELVAAISKDGGSTYYADSVKGRFTISRDNAKNTVYLQMNSLKPEDTAVYSCAARVKRPQTGYDRRYGYWGQGTQVTVSS",
    "polyreactivity (PSR sort gate)": "high polyreactivity"
  }
]

Ask: Requested field: polyreactivity (PSR sort gate). Item: "QVQLVESGGGLVQAGGSLRLSCAASGRIFQYYAMGWYRQAPGKERELVASISGRGGRTYYADSVKGRFTISRDNAKNTVYLQMNSLKPEDTAVYYCNAVFSTIRYIRSYNYWGQGTQVTVSS"
Reply: high polyreactivity

Ask: Requested field: polyreactivity (PSR sort gate). Item: "QVQLVESGGGLVQAGGSLRLSCAASGSIFSPNDMGWYRQAPGKERELVAAITSAGSTYYADSVKGRFTISRDNAKNTVYLQMNSLKPDDTAVYYCAATYISVTDYAYFPLWYGYWGQGTQVTVSS"
Reply: low polyreactivity

Ask: Requested field: polyreactivity (PSR sort gate). Item: "QVQLVESGGGLVQAGGSLRLSCAASGSIFGKYAMGWYRQAPGKERELVATINRGGGGTYYADSVKGRFTISRDNAKNTVYLQMNSLKPEDTAVYYWAVSYRSYVWYGYWGQGTQVTVSS"
Reply: high polyreactivity

Ask: Requested field: polyreactivity (PSR sort gate). Item: "QEQLQERGGGLVQAGGSLRLSCAASGSIFKVVDMGLYRQAPAKEREFVATIGEGGNTYYADSVKGRFTISRDNAKNTVYLQMNSLKPEDTAVYFYAVVLGTYYRYTYWGQGTQVTVSS"
Reply: low polyreactivity

Ask: Requested field: polyreactivity (PSR sort gate). Item: "QVQLVESGGGLVQAGGSLSLSCAASGFIFYRYAMGWYRQAPGKERELVAAITSGGSTKYADSVKGRFTISRDNAKNTVYLQMNSLKPEYTAVYYCAADPFDWFSYYYWGQGTQVTVSS"
Reply: low polyreactivity

Ask: Requested field: polyreactivity (PSR sort gate). Item: "QVQLVESGGGLVQAGGCLRLSCAASGFTFKTYAMGWYRQAPGKEREFVAAITTRVGSTYYADSVKGRFSISRDNAKNTVYLQMISLKPEDTAVYYCNYNFNYPYYRYGYWGQGTQVTVSS"
Reply: high polyreactivity

Ask: Requested field: polyreactivity (PSR sort gate). Item: "QVQLVESGGGLVQAGGSLRLSCAASGSIFKINAMGWYRQAPWKERDFVAAITWSGGSTYYADSVKGRFTISRDNAKHTVYLQMNSLKPEDTAVYYCNARYFNYSTFGGKMGYWGQGTQVTVSS"
Reply: high polyreactivity
